# credit: patent US20240166750A1

molecular target: Recombinant human FcγRIIIa-V158 (human, UniProt P08637 17-208); assay: SPR; +kif
Sequence (P08637 17-208 F176V): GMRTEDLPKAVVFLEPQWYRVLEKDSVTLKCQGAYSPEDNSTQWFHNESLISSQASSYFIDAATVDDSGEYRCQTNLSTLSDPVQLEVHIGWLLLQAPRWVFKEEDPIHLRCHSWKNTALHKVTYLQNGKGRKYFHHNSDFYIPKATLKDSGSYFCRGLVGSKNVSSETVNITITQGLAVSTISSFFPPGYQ
In this section, each of the binders is paired with its reported Kd.
Record the value in nM, omitting the unit from your answer.

binder: human IgG1 antibody specific for protein 4, S239D + T256D/T307Q + R292C/V302C, +Kif (antibody) ASTKGPSVFPLAPSSKSTSGGTAALGCLVKDYFPEPVTVSWNSGALTSGVHTFPAVLQSSGLYSLSSVVTVPSSSLGTQTYICNVNHKPSNTKVDKKVEPKSCDKTHTCPPCPAPELLGGPDVFLFPPKPKDTLMISRDPEVTCVVVDVSHEDPEVKFNWYVDGVEVHNAKTKPCEEQYNSTYRCVSVLQVLHQDWLNGKEYKCKVSNKALPAPIEKTISKAKGQPREPQVYTLPPSRDELTKNQVSLTCLVKGFYPSDIAVEWESNGQPENNYKTTPPVLDSDGSFFLYSKLTVDKSRWQQGNVFSCSVMHEALHNHYTQKSLSLSPGK
Kd (nM): 13.1

binder: human IgG1 antibody specific for protein 4, S239D/I332E + T256D/T307Q + R292C/V302C, +Kif (antibody) ASTKGPSVFPLAPSSKSTSGGTAALGCLVKDYFPEPVTVSWNSGALTSGVHTFPAVLQSSGLYSLSSVVTVPSSSLGTQTYICNVNHKPSNTKVDKKVEPKSCDKTHTCPPCPAPELLGGPDVFLFPPKPKDTLMISRDPEVTCVVVDVSHEDPEVKFNWYVDGVEVHNAKTKPCEEQYNSTYRCVSVLQVLHQDWLNGKEYKCKVSNKALPAPEEKTISKAKGQPREPQVYTLPPSRDELTKNQVSLTCLVKGFYPSDIAVEWESNGQPENNYKTTPPVLDSDGSFFLYSKLTVDKSRWQQGNVFSCSVMHEALHNHYTQKSLSLSPGK
Kd (nM): 5.24

binder: human IgG1 antibody specific for protein 4, S239D/S298A + T256D/T307Q + R292C/V302C, +Kif (antibody) ASTKGPSVFPLAPSSKSTSGGTAALGCLVKDYFPEPVTVSWNSGALTSGVHTFPAVLQSSGLYSLSSVVTVPSSSLGTQTYICNVNHKPSNTKVDKKVEPKSCDKTHTCPPCPAPELLGGPDVFLFPPKPKDTLMISRDPEVTCVVVDVSHEDPEVKFNWYVDGVEVHNAKTKPCEEQYNATYRCVSVLQVLHQDWLNGKEYKCKVSNKALPAPIEKTISKAKGQPREPQVYTLPPSRDELTKNQVSLTCLVKGFYPSDIAVEWESNGQPENNYKTTPPVLDSDGSFFLYSKLTVDKSRWQQGNVFSCSVMHEALHNHYTQKSLSLSPGK
Kd (nM): 12.8

In the following, a different binder is considered.
INPUT: State the recorded Kd for this entry: human IgG1 antibody specific for protein 4, S239D/I332E + R292C/V302C, +Kif (antibody) ASTKGPSVFPLAPSSKSTSGGTAALGCLVKDYFPEPVTVSWNSGALTSGVHTFPAVLQSSGLYSLSSVVTVPSSSLGTQTYICNVNHKPSNTKVDKKVEPKSCDKTHTCPPCPAPELLGGPDVFLFPPKPKDTLMISRTPEVTCVVVDVSHEDPEVKFNWYVDGVEVHNAKTKPCEEQYNSTYRCVSVLTVLHQDWLNGKEYKCKVSNKALPAPEEKTISKAKGQPREPQVYTLPPSRDELTKNQVSLTCLVKGFYPSDIAVEWESNGQPENNYKTTPPVLDSDGSFFLYSKLTVDKSRWQQGNVFSCSVMHEALHNHYTQKSLSLSPGK
OUTPUT: 5.46
